Hey, just so you know, these numbers are from patent US9957251B2.

Can you tell me inhibition at 1 µM for the items I'm about to list?
# measured target: CDK8/CycC (Homo sapiens, UniProt P49336)
# Construct: purchased Carna Biosciences
# Sequence (P49336 whole entry): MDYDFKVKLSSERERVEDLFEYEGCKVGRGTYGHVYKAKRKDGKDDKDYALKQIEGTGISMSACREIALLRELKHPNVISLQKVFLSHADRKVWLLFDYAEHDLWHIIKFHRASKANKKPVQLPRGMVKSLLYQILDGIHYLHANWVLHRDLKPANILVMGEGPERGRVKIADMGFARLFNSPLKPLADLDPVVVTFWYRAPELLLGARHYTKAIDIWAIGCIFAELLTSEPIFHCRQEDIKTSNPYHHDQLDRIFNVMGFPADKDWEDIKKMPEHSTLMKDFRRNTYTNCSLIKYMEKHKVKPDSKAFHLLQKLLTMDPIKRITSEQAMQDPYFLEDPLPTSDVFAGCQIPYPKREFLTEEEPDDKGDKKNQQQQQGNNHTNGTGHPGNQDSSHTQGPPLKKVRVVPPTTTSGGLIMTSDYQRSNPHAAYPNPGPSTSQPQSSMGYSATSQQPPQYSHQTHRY
# Sequence (P24863 whole entry partner): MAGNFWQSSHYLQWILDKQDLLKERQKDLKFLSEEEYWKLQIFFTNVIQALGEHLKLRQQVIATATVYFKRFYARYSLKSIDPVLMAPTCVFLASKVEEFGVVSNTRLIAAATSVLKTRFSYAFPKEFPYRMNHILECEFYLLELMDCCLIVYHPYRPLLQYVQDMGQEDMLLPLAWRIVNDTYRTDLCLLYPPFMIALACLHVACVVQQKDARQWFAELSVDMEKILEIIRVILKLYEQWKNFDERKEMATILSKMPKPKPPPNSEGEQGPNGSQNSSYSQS
# assay method text: CDK8 inhibitory activity (TR-FRET, Kinase Tracer-236 displacement)
# Type: binding
# study conditions: 1 μM of the test compound; read-out: Percent inhibition of CDK8 activity (%)
Could you write the number and then its unit?

Incoming: If you can, please state the reported inhibition at 1 µM value of Cn1cnc2ccc(-c3c(F)cncc3/C=C/C(=O)Nc3ccc(CN4CC(F)(F)C4)cc3)cc21 [Example 358] .
Outgoing: 87%

Each compound below has a reported value. Please supply its inhibition at 1 µM.
1. CN(C)CCOc1ccc(NC(=O)/C=C/c2cnccc2-c2cnn(C)c2)cc1 [Example 252]
2. O=C(/C=C/c1cnccc1-c1ccns1)Nc1ccc(CN2CCOCC2)cc1 [Example 196]
3. Cn1cc(-c2ccncc2/C=C/C(=O)Nc2ccc3c(c2)CN(CC(F)F)C3)cn1 [Example 342]

Outgoing:
["99%", "101%", "105%"]

Hi team, please reply with inhibition at 1 µM for each item in this list.
1. Cn1cc(-c2ccncc2/C=C/C(=O)Nc2ccc(Cn3cccn3)cc2)cn1 [Example 274]
2. Cn1cc(-c2ccncc2/C=C/C(=O)Nc2ccc3c(c2)CN(CC(F)(F)F)C3)cn1 [Example 289]
3. O=C(/C=C/c1cnccc1-c1cnn(C2CC2)c1)Nc1ccc(CN2CC3(COC3)C2)cc1 [Example 308]
4. Cn1cc(-c2ccncc2/C=C/C(=O)Nc2ccc(CNC3CC3)cc2)cn1 [Example 49]

Outgoing:
1. 102%
2. 98%
3. 110%
4. 95%

For every item below, please supply its inhibition at 1 µM.
1. CC(c1ccc(NC(=O)/C=C/c2cnccc2-c2cnn(C)c2)cc1)N1CCOCC1 (stereo not shown) [Example 43]
2. Cn1cnc2ccc(-c3c(F)cncc3/C=C/C(=O)Nc3ccc4c(c3)CN(CC(F)(F)F)C4)cc21 [Example 357]
3. Cn1cc(-c2ccncc2/C=C/C(=O)Nc2ccc(CN3CC(F)(F)OC(F)(F)C3)cc2)cn1 [Example 58]
4. CCN1CCc2ccc(NC(=O)/C=C/c3cnccc3-c3cnn(C)c3)cc2C1 [Example 257]
5. O=C(/C=C/c1cnccc1-c1cnn(C2CC2)c1)Nc1ccc(CN2CCOCC2)cc1F [Example 194]
6. CC(=O)N(C)Cc1cc(NC(=O)/C=C/c2cnccc2-c2cnn(C)c2)ccc1C [Example 246]
7. O=C(/C=C/c1cnccc1-c1cnn(Cc2ccccc2)c1)Nc1ccc(CN2CCOCC2)cc1 [Example 93]
8. Cn1cc(-c2ccncc2/C=C/C(=O)Nc2ccc3c(c2)CN(CC(F)(F)F)CC3)cn1 [Example 216]

Outgoing:
1: 96%; 2: 101%; 3: 97%; 4: 99%; 5: 99%; 6: 95%; 7: 101%; 8: 102%

Look up inhibition at 1 µM for the entries below, preserving their order.
1. Cc1ccc(NC(=O)/C=C/c2cnccc2-c2cn[nH]c2)c(F)c1 [Example 296]
2. CCn1cc(-c2ccncc2/C=C/C(=O)Nc2ccc(CN3CCOCC3)cc2)cn1 [Example 92]
3. O=C(/C=C/c1cnccc1-c1ccc2nccn2c1)Nc1ccc(CN2CCOCC2)cc1 [Example 222]
4. Cn1cc(-c2ccncc2/C=C/C(=O)Nc2ccc3c(c2)OCC3)cn1 [Example 116]
5. O=C(/C=C/c1cnccc1-c1cnn(C2CC2)c1)Nc1ccc(C2CC2)cc1 [Example 290]

Outgoing:
1. 100%
2. 96%
3. 101%
4. 100%
5. 95%
